test system: MDA-MB-468 breast; assay: NCI tumour cell line growth inhibition, 48 h; in the data active = GI50 below about 0.43 µM; inactive = the rest
Answer with one of the outcomes given here: 1.0 for active, 0.0 for inactive

These recorded examples may help you get a feel for the data.
molecule | class
COC(=O)/C=C1\S/C(=N\NC(=O)c2cc3ccc2/C=C\c2ccc(cc2)/C=C\3)N(c2ccccc2)C1=O | 0.0
Cc1ccc(NC(=O)Nc2ccc(-c3cccnc3)cc2N2CCC(CO)CC2)cc1 | 0.0
FC(F)(F)c1cccc(Nc2nc(-c3ccccc3)nc3ncccc23)c1 | 0.0
CC1CCc2nc[nH]c(=O)c21 (stereo not drawn) | 0.0
O=C(Nc1ccc(F)cc1)Nc1ccc(Cl)c([N+](=O)[O-])c1 | 0.0
COc1cccc(C2c3cc4c(cc3OC(C)(N3CCCC3)C2C)OCO4)c1O (stereo not drawn) | 0.0

(Q) Tell me the recorded outcome of this test for NS(=O)(=O)OC[C@@H]1C[C@@H](n2ccc3c(NC4CCc5ccccc54)ncnc32)C[C@@H]1O (stereo partly drawn) .
(A) 0.0

(Q) Tell me the recorded outcome of this test for CCN1/C(=C\c2cc[n+](CC)c3ccccc23)C=Cc2ccccc21 .
(A) 1.0
